COMPOUND: O=Cc1cnc(Oc2ccccc2)s1
melting point: 50 °C
--
COMPOUND: COc1ccc(C(=O)Nc2nc(-c3ccccc3)c(-c3ccc(=O)n(C(C)C)n3)s2)cc1
melting point: 219 to 221 °C
--
COMPOUND: O=C(O)COc1cccnc1-c1ccc(Cl)c(C(=O)NCC23CC4CC(CC(C4)C2)C3)c1
melting point: 133 to 137 °C
--
COMPOUND: Nc1ncccc1OCc1c(Cl)cccc1Cl
melting point: 141 to 142 °C
--
COMPOUND: CCn1cc([C@]2(c3cccc(-c4cccnc4F)c3)N=C(N)N(C)C2=O)cc1C(C)=O
melting point: 109 to 111 °C
--
COMPOUND: Clc1cccc(Oc2ccc3[nH]ccc3c2)n1
melting point: 117 to 118 °C
--
COMPOUND: Cc1ccc2c(c1C)OC(C(F)(F)F)C(C(=O)O)=C2 (stereo unspecified)
melting point: 245 to 247 °C
--
COMPOUND: CC1=CC(=O)C(C)(N=Nc2ccc3ccccc3c2)O1 (stereo unspecified)
melting point: 76 to 77 °C
--
COMPOUND: CCOC(=O)CC[C@H](NC(=O)c1ccc(N)c(C)c1)C(=O)OCC
melting point: 79 to 82 °C
--
COMPOUND: O=C(c1cccnc1)C(Cc1ccc(F)cc1)c1ccccc1 (stereo unspecified)
melting point: 100 to 102 °C
--
COMPOUND: COc1ccc(-c2cc(N)c(Cl)c(C(=O)O)n2)cc1
melting point: 192 °C

----------
Recorded melting point by entry
READOUT NAME: melting point

COMPOUND: O=C(Nc1ccc(-n2nc(-c3ccccc3)c3cccnc32)cc1)C(F)(F)F
TEST VALUE: 172 to 174 °C

COMPOUND: N#CCCNC(=O)c1cccc(-c2cccc3nc(C(O)c4cccc(C(F)(F)F)c4)cn23)c1 (centres undefined)
TEST VALUE: 223 to 224 °C

COMPOUND: Cc1c(C(=O)c2ccc(Br)c3ccccc23)c2cccc(C(F)(F)F)c2n1CCN1CCOCC1
TEST VALUE: 160 °C

COMPOUND: CCCCCC1CCN([C@H]2CC[C@H](C(=O)OC)CC2)CC1
TEST VALUE: 5 °C

COMPOUND: CCN1CCC(O)(c2cccc(Cl)c2F)C1 (centres undefined)
TEST VALUE: 71 to 74 °C

COMPOUND: COc1ccc(C(=O)Nc2cccc3c2CCN(C)C3)cc1
TEST VALUE: 170 to 172 °C

COMPOUND: CC1(C)Oc2ccc(C(F)(F)F)cc2[C@@H](NC(=O)Nc2ccccc2)[C@@H]1O (relative stereo)
TEST VALUE: 174 to 175 °C

COMPOUND: CC(O)(C1=CCN(CCCC(=O)c2ccc(F)cc2)CC1)c1ccc(F)cc1 (centres undefined)
TEST VALUE: 95 °C

COMPOUND: CC(C(=O)O)c1ccc(-c2ccc(F)cc2)c(F)c1 (centres undefined)
TEST VALUE: 118 to 119 °C

----------
COMPOUND: N#Cc1cnn2c1N(C(=O)CCl)CC=C2c1cccc(Cl)c1
melting point: 196 to 198 °C
--
COMPOUND: COc1cc2c(cc1-c1ccccc1)CCN=C2C1(c2ccccc2Cl)CCC1
melting point: 149 to 152 °C
--
COMPOUND: O=c1[nH]c2ccccc2n1CCCN1CCC(c2nsc3ccccc23)CC1
melting point: 185 to 187 °C
--
COMPOUND: Cn1c([N+](=O)[O-])cnc1CS(=O)(=O)c1ccccn1
melting point: 187 °C
--
COMPOUND: O=C(Nc1nc2n(n1)Cc1ccccc1-2)c1ccccc1
melting point: 220 to 221 °C
--
COMPOUND: Cc1oc(-c2ccco2)nc1COc1ccc(COc2nn(Cc3ccccc3)cc2C(=O)O)cc1OCc1ccccc1
melting point: 184 to 185 °C
--
COMPOUND: O=C(NC(CCl)CCOc1ccc(Br)cc1)c1c(F)cccc1F (centres undefined)
melting point: 116 to 119 °C
--
COMPOUND: COc1ccc(CCC(=O)O)cc1OCCCc1cn(-c2ccc(C(F)(F)F)cn2)nc1C(C)C
melting point: 93 to 94 °C
--
COMPOUND: CC(C)(C)OC(=O)NCCc1ccc([N+](=O)[O-])cc1
melting point: 94 to 95 °C

----------
Readings of melting point for the listed compounds
READOUT NAME: melting point

COMPOUND: Clc1ccc(-c2cnc3cc4cn[nH]c4cc3n2)s1
TEST VALUE: > 300 °C
//
COMPOUND: CCOC(=O)CCc1cc(Cl)ccc1C(=O)CCCNC(N)=O
TEST VALUE: 127 to 129 °C
//
COMPOUND: CCCCCS(=O)(=O)NC(=O)/C=C/c1ccc(OCCCOCC2CC2)cc1Oc1ncc(C(F)(F)F)cc1Cl
TEST VALUE: 124 to 125 °C
//
COMPOUND: COc1cc(C(C)=O)cc(OC)c1OCCOc1ccc2ccccc2c1
TEST VALUE: 76 to 77 °C
//
COMPOUND: CS(=O)(=O)c1ccc(C(O)C(CF)N=[N+]=[N-])cc1 (centres undefined)
TEST VALUE: 121 to 123 °C
//
COMPOUND: NC(=NO)c1ccc(Cn2ccc(OCc3ccccc3)c(Br)c2=O)cc1
TEST VALUE: 210 to 212 °C
//
COMPOUND: COCC(=O)Nc1cccc(-c2ccnc(NCCc3ccc(OC)c(OC)c3)n2)c1
TEST VALUE: 140 to 141 °C
//
COMPOUND: CCCCc1ccc(OC)c(-c2csc(NC(=O)c3ccc(C(=O)N4CCC(N5CCC(NC(=O)CC)C5)CC4)cc3)n2)c1 (centres undefined)
TEST VALUE: 128 °C
//
COMPOUND: C=CCC(C)(C)C(=O)O[C@H]1C[C@H](O)C=C2C=C[C@H](C)[C@H](CCC3CC(O)CC(=O)O3)[C@H]21 (some centres undefined)
TEST VALUE: 141 to 142 °C

----------
In this section we review reported melting point values for a set of molecules.
READOUT NAME: melting point

MOLECULE: CCCCCCCCCCCC(=O)Nc1cc([N+](=O)[O-])ccc1F
READOUT NAME: melting point
TEST VALUE: 75 to 77 °C
//
MOLECULE: NC(=O)c1cccc2c1C1(COc3cc4c(cc31)OCCO4)CN2Cc1ccccn1 (stereo unspecified)
READOUT NAME: melting point
TEST VALUE: 214 to 215 °C
//
MOLECULE: CN(Cc1ccccc1)c1nc(=O)n(C(=O)c2cccs2)cc1F
READOUT NAME: melting point
TEST VALUE: 101 to 102 °C
//
MOLECULE: CCCCc1c(C)c2ccc(OCCCN3CCN(Cc4ccc(Cl)cc4)CC3)cc2[nH]c1=O
READOUT NAME: melting point
TEST VALUE: 148 to 149 °C
//
MOLECULE: COC(=O)c1cc(-c2ccccc2)c(=O)n2c1-c1sccc1CN2C(C)=O
READOUT NAME: melting point
TEST VALUE: 132 to 134 °C
//
MOLECULE: CCc1cc(Oc2ccc([N+](=O)[O-])cc2C(F)(F)F)nn1C(=O)NC
READOUT NAME: melting point
TEST VALUE: 97 to 100 °C
//
MOLECULE: Cc1cc(C(N)=O)ncc1C(c1c(F)ccc(F)c1F)S(=O)(=O)c1ccc(OC(F)(F)F)cc1 (stereo unspecified)
READOUT NAME: melting point
TEST VALUE: 219 to 220 °C
//
MOLECULE: CCOC(=O)C=C(C)c1ccc(C=CC=C(C)CCC=C(C)C)cc1
READOUT NAME: melting point
TEST VALUE: 32 to 32.5 °C
//
MOLECULE: COC(=O)C1=C(N)NC(C)=C([N+](=O)[O-])C1c1ccccc1S(=O)(=O)CCCCCl (stereo unspecified)
READOUT NAME: melting point
TEST VALUE: 218 °C
//
MOLECULE: CCOC(=O)CCCOc1ccc([N+](=O)[O-])c(C=C2C(=O)NC(=O)N2C)c1
READOUT NAME: melting point
TEST VALUE: 161 to 163 °C
//
MOLECULE: CCOC(=O)N1CCN(c2ccncc2N)CC1
READOUT NAME: melting point
TEST VALUE: 141 to 142 °C
//
MOLECULE: CC1c2ccccc2-c2ccc(F)cc2N1C(=O)c1ccc(O)cc1 (stereo unspecified)
READOUT NAME: melting point
TEST VALUE: 134 to 135 °C
//
MOLECULE: CCOC(=O)CCc1cn(CC(=O)N(C)CCc2ccccc2)c2ccc(OCc3ccccc3)cc12
READOUT NAME: melting point
TEST VALUE: 81 to 83 °C
//
MOLECULE: CN1C(=O)C(c2ccc(OC(F)F)cc2)(c2cccc(OCCC=C(F)F)c2)N=C1N (stereo unspecified)
READOUT NAME: melting point
TEST VALUE: 127 to 128 °C
//
MOLECULE: Cc1ccc(-c2c3cc(C)ccc3nc3ccc(C)cc23)cc1
READOUT NAME: melting point
TEST VALUE: 210 to 211 °C
//
MOLECULE: CCCCCOc1ccc2cc(C(C)C(=O)O)ccc2c1 (stereo unspecified)
READOUT NAME: melting point
TEST VALUE: 97 to 99 °C
//
MOLECULE: Cc1ccc(C(=S)NCCCCCCCNC(=S)c2ccc(C)cc2)cc1
READOUT NAME: melting point
TEST VALUE: 181 to 182 °C
//
MOLECULE: COc1ccc(-c2ccc(Cl)nn2)c(O)c1
READOUT NAME: melting point
TEST VALUE: 156 to 157 °C
//
MOLECULE: O=S1N=C(NCCCN(Cc2ccccc2)c2ccccn2)C(NCc2cccnc2)=N1 (stereo unspecified)
READOUT NAME: melting point
TEST VALUE: 114 to 116 °C
//
MOLECULE: CCOCCOc1ccc(C(=O)Oc2ccc(C#N)c(F)c2)cc1
READOUT NAME: melting point
TEST VALUE: 62.4 to 63.2 °C
//
MOLECULE: Cc1ccc(CS(=O)c2nc3cc4c(cc3[nH]2)OC(F)C(F)(F)O4)nc1 (stereo unspecified)
READOUT NAME: melting point
TEST VALUE: 186 to 187 °C
//
MOLECULE: N#Cc1ccc(OCc2cnsc2)cc1F
READOUT NAME: melting point
TEST VALUE: 102 to 105 °C
//
MOLECULE: CCOC(=O)Cc1ccc(SCc2ccc(Cl)cc2C(=O)O)cc1
READOUT NAME: melting point
TEST VALUE: 109 to 112 °C
//
MOLECULE: CC(C)(C)OC(=O)Nc1cc(N2CCOC2=O)c(-c2ccc(F)cc2)cc1N
READOUT NAME: melting point
TEST VALUE: 210 °C
//
MOLECULE: Cc1noc(-c2ccc(F)cc2)c1-c1ccc(S(N)(=O)=O)cc1
READOUT NAME: melting point
TEST VALUE: 174 to 175 °C
//
MOLECULE: CCCCCCCCCCc1nc(N(C)C)nc(C)c1O
READOUT NAME: melting point
TEST VALUE: 71 to 72 °C
//
MOLECULE: Clc1cc(Cl)nc(N2CCSCC2)n1
READOUT NAME: melting point
TEST VALUE: 79.5 to 81.5 °C
//
MOLECULE: COc1ccc(C[C@H]2[C@H](CO)CCCN2C)cc1 (relative stereo)
READOUT NAME: melting point
TEST VALUE: 66 to 68 °C
//
MOLECULE: O=C1N(Cc2ccco2)Cc2cnc(Nc3ccccc3)nc2N1c1cccc(CCO)c1
READOUT NAME: melting point
TEST VALUE: 195 °C
//
MOLECULE: Brc1cc(Cc2ccc3ccccc3c2)cc(Br)c1OCc1nnn[nH]1
READOUT NAME: melting point
TEST VALUE: 183 to 184 °C
//
MOLECULE: Cc1cccc(NC(=O)NC2N=C(CC(C)C)c3cccc(C)c3N(CC(=O)N3CC4CCC(CC4)C3)C2=O)c1 (stereo unspecified)
READOUT NAME: melting point
TEST VALUE: 134 to 135 °C
//
MOLECULE: O=C1OC(CO)CN2C1=Cc1ccsc1S2(=O)=O (stereo unspecified)
READOUT NAME: melting point
TEST VALUE: 210 to 212 °C
//
MOLECULE: OCCCc1ccc(SCc2coc(/C=C/c3ccccc3)n2)cc1
READOUT NAME: melting point
TEST VALUE: 91 to 92 °C
//
MOLECULE: Cc1ccn(-c2ccc(C=O)cc2)n1
READOUT NAME: melting point
TEST VALUE: 96 to 98 °C
//
MOLECULE: Cc1c(C)c(N2CCN(c3ccc(Cl)cc3)CC2)c(C)c2c1OC(C)(C)C2
READOUT NAME: melting point
TEST VALUE: 226 to 229 °C
//
MOLECULE: CC(=O)c1sccc1CN1C(=O)C(NC(=O)Nc2cccc(C)c2)N=C(C2CCCCC2)c2ccccc21 (racemic)
READOUT NAME: melting point
TEST VALUE: 231 to 232 °C
//
MOLECULE: CC(C)C(=O)N[C@@H](CS)C(=O)O
READOUT NAME: melting point
TEST VALUE: 103 to 104 °C
//
MOLECULE: CN1CN(C2CC2)c2ccc(C(N)=O)cc2S1(=O)=O
READOUT NAME: melting point
TEST VALUE: 271 to 273 °C
//
MOLECULE: C=CCOc1ccc(C(=O)C=Cc2cccc(OC)c2OC)cc1
READOUT NAME: melting point
TEST VALUE: 98 to 99 °C
//
MOLECULE: CCN(C)C1CCCN(C(=O)c2ccc(NC(=O)c3ccccc3C)cc2)c2ccccc21 (stereo unspecified)
READOUT NAME: melting point
TEST VALUE: 192 to 193 °C
//
MOLECULE: Cn1cc2c(cc1=O)CCCC2=O
READOUT NAME: melting point
TEST VALUE: 94 to 97 °C
